growth values for the molecules below.
Test system: OVCAR-5 ovarian
protocolNotes: NCI-60 one-dose screen, 48 h (100 = growth as untreated, 0 = no growth, -100 = all killed)
assayContext: 10 µM unless noted
This is part of a sample that, as a whole, favours compounds with a hit. Of some 83,000 tested, about 20% had one in any assay.

entrySmiles: N#Cc1cnn2c(-c3ccc(Cl)cc3)nc(NCCc3ccccc3)nc12
growth [%]: 101
//
entrySmiles: COc1cccc(-c2cnco2)c1OCc1c(C)c(COc2c(OC)cccc2-c2cnco2)c(C)c(COc2c(OC)cccc2-c2cnco2)c1C
growth [%]: 74.9
//
entrySmiles: O=C(NCc1cn(Cc2cccc(Oc3ccccc3)c2)nn1)c1cccnc1NCc1ccc(Cl)cc1
growth [%]: 51.5
//
entrySmiles: CCCCCCCCn1cc(C2=C(c3coc4ccc(OC)cc34)C(=O)NC2=O)c2ccccc21
growth [%]: 90.8
//
entrySmiles: O=S(=O)(Nc1ccsc1-c1nc(-c2ccccc2)no1)c1cc(Cl)cc(Cl)c1
growth [%]: 86.5

###

Entries annotated with measured growth
Test system: BT-549 breast
protocolNotes: NCI-60 one-dose screen, 48 h (100 = growth as untreated, 0 = no growth, -100 = all killed)
assayContext: 10 µM unless noted
This is part of a sample that, as a whole, favours compounds with a hit. Of some 83,000 tested, about 20% had one in any assay.

compound: N=c1ccn2c(n1)OC1C(O)C(CO)OC12 (centres undefined)
systemUnderTest: BT-549 breast
growth, %: 44.9

compound: CCCCOC(=O)c1ccc(NC(=O)C(C)N2CCOCC2)cc1 (centres undefined)
systemUnderTest: BT-549 breast
growth, %: 86.6

compound: O=c1oc2ccc(Cl)cc2cc1-c1cs/c(=N/N=C\c2ccc(Cl)cc2)n1/N=C/c1ccc(Cl)cc1
systemUnderTest: BT-549 breast
growth, %: 109

compound: COc1cc2oc3cc(C)oc(=O)c3c2cc1OC
systemUnderTest: BT-549 breast
growth, %: 109

compound: CCN(CC)CC(=O)Nc1cccc(C(=O)OC(C)C)c1
systemUnderTest: BT-549 breast
growth, %: 66

compound: COc1ccc(-c2cc(-c3cc(OC)ccc3O)[nH]c(=O)c2C#N)cc1
systemUnderTest: BT-549 breast
growth, %: 22.1

compound: CCCN1CCN(c2ccc3nc(-c4ccc5nc(-c6cc(OC)c(OC)c(OC)c6)[nH]c5c4)[nH]c3c2)CC1
systemUnderTest: BT-549 breast
growth, %: 83.2

compound: C[C@@H]1C(=O)N(C[C@@H](Cc2ccccc2)NC(=O)OCc2ccccc2)[C@]1(Cc1ccccc1)C(=O)OCc1ccccc1
systemUnderTest: BT-549 breast
growth, %: 61.3

compound: CC1=CC(=O)C(C(C)C)=CC1=Nc1cc(Br)c(O)c(Br)c1
systemUnderTest: BT-549 breast
growth, %: 26.4

compound: Nc1ccc(CCCCc2ccccc2)c(Cl)c1
systemUnderTest: BT-549 breast
growth, %: 91.9

compound: CS(=O)(=O)c1ccc(-c2[nH]c3ccc(F)cc3c2/C=N/NC(N)=S)cc1
systemUnderTest: BT-549 breast
growth, %: 39.3

compound: Cc1nn(Cc2ccccc2)cc1C(=O)Nc1sc2c(c1C(N)=O)CCC(=O)C2
systemUnderTest: BT-549 breast
growth, %: 10.4

compound: O[C@H]1CO[C@H]2[C@@H]1OC[C@@H]2Oc1ccc(Nc2ccnc(Nc3ccc(O[C@H]4CO[C@H]5[C@@H]4OC[C@@H]5O)c(Cl)c3)n2)cc1Cl
systemUnderTest: BT-549 breast
growth, %: 22.1

compound: Nc1ccc(-c2cc3c(Nc4ccc(OCc5cccc(F)c5)c(Cl)c4)ncnc3s2)cc1
systemUnderTest: BT-549 breast
growth, %: 61.2

compound: O[C@H]1CO[C@H]2[C@@H]1OC[C@@H]2Oc1ccc(Nc2nc(Nc3ccc(F)c(Cl)c3)ncc2F)cc1Cl
systemUnderTest: BT-549 breast
growth, %: 105

compound: COc1cc2c(cc1OC)-c1ccc3cc4c(cc3c1N(CCN1CCCC1)C2)OCO4
systemUnderTest: BT-549 breast
growth, %: 21.8

compound: Cc1ccc(NSc2ccccc2[N+](=O)[O-])cc1
systemUnderTest: BT-549 breast
growth, %: 34.1

compound: N#Cc1c(NC(=O)c2cccc(C(F)(F)F)c2)sc2c1CCC(=O)C2
systemUnderTest: BT-549 breast
growth, %: -77.1

compound: CSc1nc(N)c(CNC(C)c2ccccc2)c(=O)n1C (centres undefined)
systemUnderTest: BT-549 breast
growth, %: 96.1

compound: C=C(C=O)C1CCC2(C(=O)O)CCC3(C)C(CCC4C5(C)CCC(O)C(C)(C)C5CCC43C)C12 (centres undefined)
systemUnderTest: BT-549 breast
growth, %: 17.4

compound: COc1cc2c(cc1OC)-c1ccc3cc4c(cc3c1N(CCN(C)C)C2)OCO4
systemUnderTest: BT-549 breast
growth, %: -2.52

compound: Cc1c2c(cn1Cc1ccccc1)CCc1cn[nH]c1-2
systemUnderTest: BT-549 breast
growth, %: 96.5

compound: C(=C\c1nc2ccccc2[nH]1)/c1nc2ccccc2[nH]1
systemUnderTest: BT-549 breast
growth, %: 118

compound: CN1C[C@@H](c2ccc(Cl)cc2)[C@]2(NC(=S)N(c3ccc(F)c(Cl)c3)C2=O)[C@@]12C(=O)NC1C=CC(Cl)=C[C@H]12 (some centres undefined)
systemUnderTest: BT-549 breast
growth, %: 21.6

compound: Cc1ccc(-n2nnc(C3=NCCc4c3[nH]c3ccc(Cl)cc43)c2C)cc1
systemUnderTest: BT-549 breast
growth, %: 85.3

compound: COC(=O)[C@]12CC[C@@H](C)[C@H](C)[C@@H]1C1=CC[C@@H]3[C@@]4(C)C(C=O)=C[C@@](C)(CO)C4=CC[C@@]3(C)[C@]1(C)CC2
systemUnderTest: BT-549 breast
growth, %: 27.7

compound: CC(C)n1nc(C#Cc2cccc(O)c2)c2c(N)ncnc21
systemUnderTest: BT-549 breast
growth, %: -65.4

compound: CC/C=C/[C@@H]1C=C[C@@H]2CCC[C@H]2[C@@H]1CC[C@H](O)[C@H](C)N
systemUnderTest: BT-549 breast
growth, %: 85.9

compound: CCC(C)NCc1ccccc1 (centres undefined)
systemUnderTest: BT-549 breast
growth, %: 95.2

compound: C=C1C(=O)O[C@H]2[C@H]1CC/C(Cn1cc(CNCCc3c[nH]c4ccccc34)nn1)=C\CC[C@@]1(C)O[C@@H]21
systemUnderTest: BT-549 breast
growth, %: 90.6

compound: Oc1[nH]c2ccccc2c1/C=c1/cc2c(c(-c3ccc(F)cc3)n1)=Nc1ccccc1-2
systemUnderTest: BT-549 breast
growth, %: -31.3

compound: CN(C)CCOC(=O)Nc1ccc(Cl)cc1
systemUnderTest: BT-549 breast
growth, %: 82

compound: O=C1c2cccc3c(-c4ccc(-c5nc6c7ccccc7c7ccccc7c6[nH]5)cc4)ccc(c23)C(=O)N1CCN1CCNCC1
systemUnderTest: BT-549 breast
growth, %: 95.4

compound: CC[C@]1(O)C[C@H]2CN(CCc3c([nH]c4ccccc34)[C@@](C(=O)OC)(c3cc4c(cc3OC)N(C=O)[C@H]3[C@@](O)(C(=O)OC)[C@H](OC(C)=O)[C@]5(CC)C=CCN6CC[C@]43[C@@H]65)C2)C1
systemUnderTest: BT-549 breast
growth, %: -24.2

compound: COc1ccc(/C=C(\C#N)n2nnc3cc(F)c(F)cc32)c(OC)c1OC
systemUnderTest: BT-549 breast
growth, %: 70.9

compound: COc1cc(C2C=C(c3cccc(NC(C)=O)c3)Nc3ncnn32)cc(OC)c1OC (centres undefined)
systemUnderTest: BT-549 breast
growth, %: -0.0208

compound: N#C/C(=C\c1ccc(Br)cc1)n1nnc2ccccc21
systemUnderTest: BT-549 breast
growth, %: -1.46

compound: CCCCCCCSc1ccc(C(=O)O)cc1
systemUnderTest: BT-549 breast
growth, %: 112

compound: O=C(CC12CC3CC(CC(C3)C1)C2)NCCOCCOCCNC(=O)c1cc2c(o1)C(=O)c1ccccc1C2=O
systemUnderTest: BT-549 breast
growth, %: -93.7
